Test system: SK-MEL-2 melanoma
Experiment: NCI-60 one-dose screen, 48 h (100 = growth as untreated, 0 = no growth, -100 = all killed)
Details: 10 µM
Description: Growth inhibition of the SK-MEL-2 human tumor cell line is measured as a screen for anti-cancer activity. Cells are grown in 96 well plates and exposed to the test compound for 48 hours. Compounds are tested at a single concentration, which is 10^-5 M for most compounds. The reported endpoint is percent growth (GI% or GIPRCNT), where numbers from 0 - 100% represent growth inhibition, and numbers from -100% - 0 represent cell death. For example, a value of 40 represents 60% growth inhibition. […]
The panel holds about 83,000 compounds, 20% with a hit somewhere; the sample as a whole holds those more often.
# thresholds on growth define classes: lowest: < -40%; middle: ≥ -40% and < 90%; highest: ≥ 90%

Please review the entries below; each comes with its answer.
{"columns": ["molecule", "group-label"],
 "data": [
  ["O=c1oc2ccc(-c3ccc(F)cc3F)cc2c(=O)n1-c1ccc(Cl)c(C(F)(F)F)c1", "lowest"],
  ["CC(C)NC(=O)c1cc(-c2ccc(NC(=O)Nc3ccc(N4CCN(C)CC4)c(C(F)(F)F)c3)cc2)nc2cccnc12", "lowest"],
  ["COc1ccc(-c2cc(C(=O)N=Nc3c(O)[nH]c4ccc(F)cc34)c3ccccc3n2)cc1", "highest"],
  ["COc1ccc(C(=O)NC(=S)N2CCN(c3ncnc4c3cnn4-c3ccccc3)CC2)cc1", "middle"]
]}

[Q] Into which category would you place O=C(CNc1nc(-c2ccccc2)cs1)Nc1ccc([N+](=O)[O-])cc1Cl ?
[A] middle

[Q] # bin label for Cc1cc(C(F)(F)F)ccc1C(=O)Nc1sc2c(c1C#N)CCC(=O)C2
[A] middle

[Q] Using the reported growth, which band applies to COc1ccc(-c2nc(-c3ccccc3)c(-c3ccccc3)n2-c2ccc(S(=O)(=O)Nc3ncccn3)cc2)cc1OC ?
[A] highest

[Q] Dear colleague, I would appreciate it if you could identify the bin for NC1=NC(c2ccccc2Cl)N=C(Nc2nn[nH]n2)N1 (configuration not stated) and reply at your convenience.
[A] highest

[Q] Returns: class label. Input: CC(=O)Nc1ccc(-n2cnc3cc(-c4ccc(O)cc4)ccc32)cc1C
[A] middle

[Q] Assign a category based on measured growth for CN1CCN(c2ccc(Nc3nc(N4CCN(S(=O)(=O)c5ccc(F)cc5)CC4)c4sccc4n3)cc2)CC1 and give only the class name.
[A] lowest

[Q] Class? Entry: O=C(Nc1nc2ccccc2s1)c1ccc(Br)cc1
[A] highest

[Q] For the record O=c1[nH]c2ccccc2cc1CSc1ccc(Nc2nccc(-c3ccc4c(c3)OCO4)n2)cc1 , report the class its growth corresponds to.
[A] highest

[Q] Category of CS(=O)(=O)Nc1ccc(-c2ccc3c(c2)ncn3-c2ccc(NC(=O)Nc3ccc(Br)cc3)cc2)cc1 , please.
[A] lowest

[Q] Sort into band: O=C(CSc1nnc(-c2c[nH]c3ccccc23)n1-c1ccccc1)Nc1ccc(C(=O)/C=C/c2ccccc2Cl)cc1
[A] highest

---

Tested on: MDA-MB-435 melanoma
Experiment: NCI-60 one-dose screen, 48 h (100 = growth as untreated, 0 = no growth, -100 = all killed)
Conditions: 10 µM
The panel holds about 83,000 compounds, 20% with a hit somewhere; the sample as a whole holds those more often.
Okay, here is how we bin by growth: group 1 (below -50%), group 2 (-50% to below 70%), group 3 (70% or more)

Check out these entries, answers already filled in.
{"columns": ["compound", "group-label"],
 "data": [
  ["O=c1[nH]c2ccccc2cc1CSc1ccc(Nc2nccc(-c3ccc(C(F)(F)F)cc3)n2)cc1", "group 2"],
  ["O=C1CCC(N2Cc3c(NCc4ccc(-c5ccccc5)cc4)cccc3C2=O)C(=O)N1 (stereo not given)", "group 3"],
  ["CCNCCCn1c2c(c3cc(OC)c(OC)cc3c1=O)C(=O)c1cc3c(nc1-2)OCO3", "group 1"],
  ["CC1(C)CC[C@]23CC[C@]4(C)[C@H](CC[C@@H]5[C@@]6(C)CC[C@H](N)C(C)(C)[C@@H]6CC[C@]54C)[C@H]2[C@H]1OC3=O", "group 1"],
  ["O/N=C(\\CSc1nnc(-c2c[nH]c3ccccc23)n1-c1ccccc1)c1ccc(Cl)cc1", "group 1"],
  ["CC(C)c1ccc(C(=O)Nc2sc3c(c2C(N)=O)CCC(=O)C3=O)cc1", "group 3"],
  ["Cc1ccc2nc(COc3ccc(C(=O)NNC(=S)NCCc4ccccc4)cc3)[nH]c2c1", "group 3"],
  ["CCCCSc1nc(Nc2ccc(/C(C)=N/NC(N)=S)cc2)c(C#N)c(-c2ccccc2)n1", "group 2"]
]}

[Q] Could you place O=C(Nc1cc(Cl)cc(Cl)c1)Nc1cc(Cl)cc(Cl)c1 in its proper category? Many thanks.
[A] group 2
